Tested on: DU-145
assay_overview: Cytotoxicity against human DU145 cells
Assay type: functional
Each record is given Met if its reported GI50 is strictly below 5 µg/mL. Records at or above 5 µg/mL are given Not met.

Completed entries (count: 2):
| structure_string | group |
| --- | --- |
| COc1cc(C)c2c(=O)c3c(O)cc(OC)cc3oc2c1 | Met |
| CC1(C)C=Cc2cc3ccc(=O)oc3cc2O1 | Met |

Task: Lab note: confirm whether the reported GI50 for this molecule is below 5 µg/mL, equality not counting. molecule: `CCCCCC(=O)Cc1cc(OC)cc(O)c1C(=O)Oc1cc(CC(=O)CCCCC)c(C(=O)OC)c(OC)c1`
Output: Not met

Task: What do you have for `C[C@H]1[C@@H](O)[C@@H](C)[C@@]2(O[C@@H]1C)[C@@H](C)[C@H]1OC(=O)[C@]2(C)C(=O)[C@@H]1C` ?
Output: Met

----------
System: KM-20L2
assay_overview: Cytotoxicity against human KM20L2 cells
Type: functional
measure_name: GI50

| compound | assay_system | measured_value |
| --- | --- | --- |
| C=C(C)[C@@H]1CC[C@]2(C(=O)O)CC[C@]3(C)[C@H](CC[C@@H]4[C@@]5(C)CC[C@H](O)C(C)(C)[C@@H]5CC[C@]43C)[C@@H]12 [BETULINIC ACID] | KM-20L2 | 3.4 µg/mL |
| COc1cc(C)c2c(=O)c3c(O)cc(OC)cc3oc2c1 [LICHEXANTHONE] | KM-20L2 | 2 µg/mL |
| CC1(C)C=Cc2cc3ccc(=O)oc3cc2O1 [XANTHYLETIN] | KM-20L2 | 6.3 µg/mL |
| CCCCCC(=O)Cc1cc(OC)cc(O)c1C(=O)Oc1cc(CC(=O)CCCCC)c(C(=O)OC)c(OC)c1 [GUSTASTATIN] | KM-20L2 | > 10 µg/mL |

// next entry
Task: Reported GI50 for C[C@H]1[C@@H](O)[C@@H](C)[C@@]2(O[C@@H]1C)[C@@H](C)[C@H]1OC(=O)[C@]2(C)C(=O)[C@@H]1C [PORTENTOL] : what is it?
Output: > 10 µg/mL

----------
System: SF-268
assay_overview: Cytotoxicity against human SF268 cells
Type: functional
Each record is given Condition met if its reported GI50 is strictly below 8 µg/mL. Records at or above 8 µg/mL are given Condition not met.

Completed entries (count: 3):
| structure_string | group |
| --- | --- |
| CC1(C)C=Cc2cc3ccc(=O)oc3cc2O1 | Condition not met |
| C=C(C)[C@@H]1CC[C@]2(C(=O)O)CC[C@]3(C)[C@H](CC[C@@H]4[C@@]5(C)CC[C@H](O)C(C)(C)[C@@H]5CC[C@]43C)[C@@H]12 | Condition met |
| C[C@H]1[C@@H](O)[C@@H](C)[C@@]2(O[C@@H]1C)[C@@H](C)[C@H]1OC(=O)[C@]2(C)C(=O)[C@@H]1C | Condition met |

Now look at this entry.
Task: Lab note: confirm whether the reported GI50 for this compound is below 8 µg/mL, equality not counting. compound: `COc1cc(C)c2c(=O)c3c(O)cc(OC)cc3oc2c1`
Output: Condition met

Value source: ChEMBL document CHEMBL1151229
